tested_target: Aβ42 (Homo sapiens)
Sequence (P05067 672-713): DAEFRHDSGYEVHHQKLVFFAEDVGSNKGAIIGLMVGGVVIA
test_summary: Th-T (thioflavin-T) assay of Aβ42 aggregation
Assay type: biochemical
conditions: time-course reading M107; Supplementary Fig. 47 source data
Criterion: Th-T fluorescence, mean of three wells strictly under 3. Met: 1.0. Not met: 0.0.

Input line: Determine if C=C1CC[C@H]2[C@]3(C)C[C@@H](C=C(C)C)O[C@H]3CC[C@]2(C)[C@@H]1Cc1c(O)c(C)c(C)oc1=O [Compound 5, subglutinol A] shows Th-T fluorescence, mean of three wells strictly lower than 3.
Output line: 1.0

Input line: Does the reported Th-T fluorescence, mean of three wells of the following compound sit strictly below 3? C=C1CCC2C(C)(CCC=C(C)C)C(O)CCC2(C)C1Cc1c(OC)oc(C)c(C)c1=O (stereo not drawn) [Compound 15, viridoxin A hydrolysate]
Output line: 0.0

Input line: Does the reported Th-T fluorescence, mean of three wells of the following compound sit strictly below 3? C=C1CC[C@@H]2[C@](C)(CC[C@H]3O[C@H](C=C(C)C)C[C@@]23C)[C@@H]1Cc1c(OC)oc(CO)c(C(=O)OC)c1=O [Compound 21]
Output line: 1.0

Input line: Quick check: Th-T fluorescence, mean of three wells of C=C1CCC2C(C)(CC(=O)C=C(C)C)C(O)CCC2(C)C1Cc1c(O)c(C)c(C)oc1=O (stereo not drawn) [Compound 7] under 3?
Output line: 0.0

Input line: Would you kindly verify if Th-T fluorescence, mean of three wells of C=C1CCC2C3(C)CC(C=C(C)C)OC3CCC2(C)C1Cc1c(OC)oc(C)c(C)c1=O (stereo not drawn) [Compound 23] is strictly less than 3?
Output line: 0.0

Input line: Input C=C1CC[C@H]2[C@]3(C)C[C@@H](C=C(C)C)O[C@H]3CC[C@]2(C)[C@@H]1Cc1c(OC)oc(CO)c(C)c1=O [Compound 17] ; condition: Th-T fluorescence, mean of three wells strictly below 3. Does it hold?
Output line: 0.0

Cited source: paper PMC7156458
